Tested on: human Factor 11 mRNA
Measurement Notes: Dose-dependent inhibition of human Factor 11 in cyano primary hepatocytes, electroporation (Example 6)
Format: cell-based
Applied Conditions: 180 nM, ~16 hours
I'd be grateful if you could share measured percent inhibition of human Factor 11 mRNA relative to untreated control cells for these entries.
Write down the numeric answer in % and omit the unit.

Identify measured percent inhibition of human Factor 11 mRNA relative to untreated control cells associated with 417003 (antisense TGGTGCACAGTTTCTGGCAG; 2-13-5 gapmer chemistry, further chemistry not given here) [compound 417003]
74

Quick one: give measured percent inhibition of human Factor 11 mRNA relative to untreated control cells for 416925 (antisense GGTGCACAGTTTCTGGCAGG; 3-14-3 gapmer chemistry, further chemistry not given here) [compound 416925]
76

Look up and report measured percent inhibition of human Factor 11 mRNA relative to untreated control cells for this entry: 416850 (antisense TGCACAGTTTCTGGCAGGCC; 5-10-5 gapmer, further chemistry not given here) [compound 416850]
67

// Input: 416892 (antisense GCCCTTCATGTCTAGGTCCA; 3-14-3 chimeric gapmer, further chemistry not given here) [compound 416892] . Output its percent inhibition of human Factor 11 mRNA relative to untreated control cells only.
92

Identify percent inhibition of human Factor 11 mRNA relative to untreated control cells associated with the substance 416826 (antisense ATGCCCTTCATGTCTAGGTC; 5-10-5 gapmer, further chemistry not given here) [compound 416826]
71

// fetch percent inhibition of human Factor 11 mRNA relative to untreated control cells given entry 417002 (antisense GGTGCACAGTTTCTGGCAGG; 2-13-5 gapmer chemistry, further chemistry not given here) [compound 417002]
71

Tell me percent inhibition of human Factor 11 mRNA relative to untreated control cells reported for 416864 (antisense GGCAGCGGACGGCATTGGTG; 5-10-5 gapmer, further chemistry not given here) [compound 416864]
64

Quickly give me recorded percent inhibition of human Factor 11 mRNA relative to untreated control cells for 416999 (antisense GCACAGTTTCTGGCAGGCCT; 2-13-5 gapmer chemistry, further chemistry not given here) [compound 416999]
82

Supply percent inhibition of human Factor 11 mRNA relative to untreated control cells value. Item: 416825 (antisense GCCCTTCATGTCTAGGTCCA; 5-10-5 gapmer, further chemistry not given here) [compound 416825]
84

State its percent inhibition of human Factor 11 mRNA relative to untreated control cells: 416858 (antisense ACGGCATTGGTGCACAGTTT; 5-10-5 gapmer, further chemistry not given here) [compound 416858]
68

Give the reported percent inhibition of human Factor 11 mRNA relative to untreated control cells for this substance. 416838 (antisense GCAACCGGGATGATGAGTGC; 5-10-5 gapmer, further chemistry not given here) [compound 416838]
62

Values from patent US20230263822A1
